- Test system: Microbacterium 1 (Microbacterium arborescens)
- Test Details: relative growth (AUC of 72 h growth curve relative to DMSO control, dAUC) (ratio); higher = more growth (less inhibition), active = hit call of the paper
- Assay Context: 20 µM
# label = Met if relative growth >= 1 else Not met

INSERT INTO assay_data (compound, system_under_test, class_label) VALUES
  ('Oc1ccccc1-c1ccccc1', 'Microbacterium 1 (Microbacterium arborescens)', 'Met'),
  ('C[N+]1(C)CCCCC1', 'Microbacterium 1 (Microbacterium arborescens)', 'Not met'),
  ('Cc1c(COC(=O)[C@@H]2[C@H](/C=C(\Cl)C(F)(F)F)C2(C)C)cccc1-c1ccccc1 (racemic)', 'Microbacterium 1 (Microbacterium arborescens)', 'Met');

Okay, now this compound:
Input line: Test whether the compound CC(COc1ccc(Oc2ccccc2)cc1)Oc1ccccn1 (configuration not stated) records relative growth of 1 or higher.
Output line: Met
